- System: HCT-15
Response field label: string, one of YES (GI50 strictly below 40 µM) or NO.

Determine whether this compound shows GI50 lower than 40 µM (ties excluded): O=C1CC(NC(=O)C(F)(F)F)c2c(Br)sc(N3CCNCC3)c21 (configuration not stated)
NO

Determine whether this compound shows GI50 lower than 40 µM (ties excluded): O=C1CCCC2C(O)CCC[C@H]12 (some centres not stated)
NO

Determine whether this compound shows GI50 lower than 40 µM (ties excluded): CC1(C)OP23(NC(=O)OC2(C(F)(F)F)c2ccccc2O3)OC1(C)C (configuration not stated)
NO

Determine whether this compound shows GI50 lower than 40 µM (ties excluded): CN(C)CCCN1N=Nc2cccc3cccc1c23
YES

Determine whether this compound shows GI50 lower than 40 µM (ties excluded): CC(C)(C)OC(=O)NCCC1CNc2ccccc21 (configuration not stated)
NO

Determine whether this compound shows GI50 lower than 40 µM (ties excluded): CCN(CC)CCOCCOCC1(c2ccc(Cl)c(Cl)c2)CCCCC1
YES

Determine whether this compound shows GI50 lower than 40 µM (ties excluded): CCOC(=O)NC(NNc1ccc([N+](=O)[O-])cc1[N+](=O)[O-])(C(F)(F)F)C(F)(F)F
YES

Determine whether this compound shows GI50 lower than 40 µM (ties excluded): CC(=O)OCC1OC(n2c3c(c(-c4ccco4)c(C#N)c2=S)CCC3)C(OC(C)=O)C(OC(C)=O)C1OC(C)=O (configuration not stated)
NO

Determine whether this compound shows GI50 lower than 40 µM (ties excluded): COc1ccc(C(Cc2cc(OC)c(OC)c(OC)c2)C(=O)O)cc1 (configuration not stated)
NO

Determine whether this compound shows GI50 lower than 40 µM (ties excluded): COC(=O)[C@H]1CC(=O)C=C2CCCC21 (some centres not stated)
NO

Determine whether this compound shows GI50 lower than 40 µM (ties excluded): O=S(=O)(N1CCCCN(S(=O)(=O)C(F)(F)F)CCCN(S(=O)(=O)C(F)(F)F)CCCN(S(=O)(=O)C(F)(F)F)CCCCN(S(=O)(=O)C(F)(F)F)CCCN(S(=O)(=O)C(F)(F)F)CCC1)C(F)(F)F
NO

Determine whether this compound shows GI50 lower than 40 µM (ties excluded): CCOC(=O)CNC(SC)=C(C#N)C#N
NO

Determine whether this compound shows GI50 lower than 40 µM (ties excluded): CC(=O)Oc1ccc2cc(Oc3ccc(Cl)c(Cl)c3)c(=O)oc2c1
YES

Determine whether this compound shows GI50 lower than 40 µM (ties excluded): CN(C)CN1CSC(=S)N(CN(C)C)C1
NO

Determine whether this compound shows GI50 lower than 40 µM (ties excluded): CCOC(=O)c1sc2nc(SC)nc3c2c1NCN3c1ccc2c(c1)OCCCO2
NO

Determine whether this compound shows GI50 lower than 40 µM (ties excluded): COc1ccc(/C(C#N)=C/c2ccc(OC)c(OC)c2)cc1
YES

Determine whether this compound shows GI50 lower than 40 µM (ties excluded): CN(C)C(=S)/N=c1\ssc(=S)n1C
NO

Determine whether this compound shows GI50 lower than 40 µM (ties excluded): CCOC(=O)CC1(N)CC2c3ccccc3OC(=O)C2C(=O)N1 (configuration not stated)
NO

Determine whether this compound shows GI50 lower than 40 µM (ties excluded): [O-]c1c2cc(-[n+]3c(-c4ccccc4)cc(-c4ccccc4)cc3-c3ccccc3)cc1COCCOCCOCCOCCOC2
NO
